Value source: patent US8815891B2

Record form. Attribute: IC50. Fill in for each entry.
- assayed-system: PARP-1 enzyme (Homo sapiens (Human), UniProt P09874)
- Sequence (P09874 whole entry): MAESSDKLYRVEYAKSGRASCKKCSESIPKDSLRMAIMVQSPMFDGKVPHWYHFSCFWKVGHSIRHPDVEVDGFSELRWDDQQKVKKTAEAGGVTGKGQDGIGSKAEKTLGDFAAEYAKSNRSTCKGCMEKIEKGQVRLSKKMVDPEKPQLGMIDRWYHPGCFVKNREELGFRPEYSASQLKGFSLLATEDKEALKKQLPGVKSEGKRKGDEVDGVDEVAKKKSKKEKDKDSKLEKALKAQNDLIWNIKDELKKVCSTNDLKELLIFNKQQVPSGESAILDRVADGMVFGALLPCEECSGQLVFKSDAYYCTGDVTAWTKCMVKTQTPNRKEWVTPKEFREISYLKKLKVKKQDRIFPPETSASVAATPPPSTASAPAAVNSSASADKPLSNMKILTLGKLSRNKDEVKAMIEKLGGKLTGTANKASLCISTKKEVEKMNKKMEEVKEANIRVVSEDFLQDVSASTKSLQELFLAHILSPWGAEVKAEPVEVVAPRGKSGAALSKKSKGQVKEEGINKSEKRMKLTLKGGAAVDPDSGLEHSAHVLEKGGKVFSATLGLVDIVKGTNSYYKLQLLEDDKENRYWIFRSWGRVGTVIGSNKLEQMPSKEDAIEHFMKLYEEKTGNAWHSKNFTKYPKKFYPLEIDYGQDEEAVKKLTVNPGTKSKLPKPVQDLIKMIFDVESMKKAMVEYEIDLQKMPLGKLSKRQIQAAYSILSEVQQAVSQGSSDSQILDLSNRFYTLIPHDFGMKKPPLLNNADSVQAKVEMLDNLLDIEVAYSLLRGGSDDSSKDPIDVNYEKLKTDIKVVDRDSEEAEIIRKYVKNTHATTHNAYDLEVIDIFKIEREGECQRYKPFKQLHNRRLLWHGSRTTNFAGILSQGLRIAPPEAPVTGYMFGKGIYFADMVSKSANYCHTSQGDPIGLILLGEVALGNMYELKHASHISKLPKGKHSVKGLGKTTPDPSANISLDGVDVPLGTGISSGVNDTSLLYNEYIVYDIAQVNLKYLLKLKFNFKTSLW
- test-summary: Poly(ADP-ribose)polymerase [PARP-1] enzyme inhibitory activity (Trevigen PARP Assay kit)
- Assay type: biochemical
- run-parameters: read-out: PARP-1 Inhibitory activity IC50
Structures can show the parent of a compound that is named as a salt.
Answers are plain numbers, in nM.

COc1cc(CN(C)C(C)C)cc2[nH]c(=O)c3c(c12)NCCC3 [Example 93, dihydrochloride]	140
CN(C)Cc1ccc2[nH]c(=O)c3c(c2c1)NCCC3 [Example 50, dihydrochloride]	320

Report IC50 for each item below.
1. CCCN(C)Cc1ccc2c3c(c(=O)[nH]c2c1)CCCN3 [Example 56, dihydrochloride]
2. CN1CCC(Oc2ccc3[nH]c(=O)c4c(c3c2)NCCC4)CC1 [Example 12, dihydrochloride]
3. CN(CCO)Cc1ccc2c3c(c(=O)[nH]c2c1)CCCN3 [Example 53, dihydrochloride]
4. COc1cc(CN2CCCC2)cc2[nH]c(=O)c3c(c12)NCCC3 [Example 77, dihydrochloride]
5. CN(C)CCCc1ccc2[nH]c(=O)c3c(c2c1)NCCC3 [Example 33, dihydrochloride]
6. CNC(C)c1ccc2c3c(c(=O)[nH]c2c1)CCCN3 (centres unmarked) [Example 39, dihydrochloride]

OUT:
[180, 1070, 50, 50, 930, 100]

###

- assayed-system: UniProtKB P09874
- test-summary: Poly(ADP-ribose)polymerase [PARP-1] enzyme inhibitory activity (Trevigen PARP Assay kit)
- Format: biochemical
- run-parameters: PARP-1 enzyme, histone ribosylation, 450 nm; read-out: PARP-1 Inhibitory activity IC50
Counter-ions that a name gives are not always drawn.
value-kind: IC50 (nM)
Answers are plain numbers, in nM.

The cases that follow already have their IC50 on record.
O=c1[nH]c2cc(Cn3ccnc3)ccc2c2c1CCCN2 [Example 64, hydrochloride]	540
CCNCc1cc(OCC)c2c3c(c(=O)[nH]c2c1)CCCN3 [Example 104, dihydrochloride]	60
CCOc1ccc2[nH]c(=O)c3c(c2c1)NCCC3 [Example 20, hydrochloride]	1540

IN: Fill in the blank: the reported IC50 of CCN(C)Cc1cc(OC)c2c3c(c(=O)[nH]c2c1)CCCN3 [Example 76] is ____.
OUT: 50

###

- assayed-system: PARP-1 enzyme (Homo sapiens (Human), UniProt P09874)
- test-summary: Poly(ADP-ribose)polymerase [PARP-1] enzyme inhibitory activity (Trevigen PARP Assay kit)
- Format: biochemical
- run-parameters: read-out: PARP-1 Inhibitory activity IC50
Counter-ions that a name gives are not always drawn.
value-kind: pIC50
Give bare numbers, as −log10 of the molar value.

The cases that follow already have their pIC50 on record.
CN1CCN(Cc2ccc3c4c(c(=O)[nH]c3c2)CCCN4)CC1 [Example 55, trihydrochloride]	5.76
CCOc1cc(CN2CCCCC2)cc2[nH]c(=O)c3c(c12)NCCC3 [Example 102, dihydrochloride]	6.74
CN(Cc1ccccc1)Cc1ccc2c3c(c(=O)[nH]c2c1)CCCN3 [Example 51, dihydrochloride]	6.03
CN1CCCc2c1c1ccc(CN3CCOCC3)cc1[nH]c2=O [Example 70, dihydrochloride]	5.96
COc1cc(CN(C)C2CCOCC2)cc2[nH]c(=O)c3c(c12)NCCC3 [Example 115, dihydrochloride]	6.39

Report pIC50 for each item below.
1. COc1cc(CN(C)C)cc2[nH]c(=O)c3c(c12)NCCC3 [Example 72, dihydrochloride]
2. CN1CCCc2c1c1cc(OCCN3CCCCC3)ccc1[nH]c2=O [Example 30, dihydrochloride]
3. CNCc1cc(OC)c2c3c(c(=O)[nH]c2c1)CCCN3 [Example 73, dihydrochloride]

OUT:
7.10
5.51
7.00

###

Record form. Attribute: SN-38 PF50. Fill in for each entry.
- Test system: MCF-7 Cell line
- test-summary: Cell growth inhibition of cancer cell lines (SRB assay), MCF-7
- Format: cell-based
- run-parameters: 2 μM compound
Where a name gives a salt, the structure may show the parent alone.
One number for each entry.

COc1cc(CN2CCOCC2)cc2[nH]c(=O)c3c(c12)NCCC3 [Example 74, dihydrochloride]	3.0
CCN(CC)Cc1ccc2c3c(c(=O)[nH]c2c1)CCCN3 [Example 42, dihydrochloride]	1.6
COc1cccc2[nH]c(=O)c3c(c12)NCCC3.Cl	1.4
COc1cc(CN(C)C)cc2[nH]c(=O)c3c(c12)NCCC3 [Example 72, dihydrochloride]	2.6
CNCc1ccc2c3c(c(=O)[nH]c2c1)CCCN3 [Example 52, dihydrochloride]	1.1

Report SN-38 PF50 for each item below.
1. CCOc1cc(CN2CCOCC2)cc2[nH]c(=O)c3c(c12)NCCC3 [Example 101, dihydrochloride]
2. O=c1[nH]c2ccc(OCCCCN3CCCCC3)cc2c2c1CCCN2 [Example 29, dihydrochloride]

OUT:
[3.0, 2.2]

###

Counter-ions that a name gives are not always drawn.
Record: GI50 reported on MCF-7 Cell line.
Answers are plain numbers, in µM.

The cases that follow already have their GI50 on record.
CCOc1cc(CN2CCOCC2)cc2[nH]c(=O)c3c(c12)NCCC3 [Example 101, dihydrochloride]	11
CCN(CC)Cc1ccc2c3c(c(=O)[nH]c2c1)CCCN3 [Example 42, dihydrochloride]	75

Consider now this further compound.
IN: Fill in the blank: the reported GI50 of COc1cc(CN(C)C)cc2[nH]c(=O)c3c(c12)NCCC3 [Example 72, dihydrochloride] is ____.
OUT: 54

###

- assayed-system: PARP-1 enzyme (Homo sapiens (Human), UniProt P09874)
- test-summary: Poly(ADP-ribose)polymerase [PARP-1] enzyme inhibitory activity (Trevigen PARP Assay kit)
- Type: biochemical
- run-parameters: PARP-1 enzyme, histone ribosylation, 450 nm; read-out: PARP-1 Inhibitory activity IC50
pIC50: −log10 of the molar value. Structures can show the parent of a compound that is named as a salt.
value-kind: pIC50

The cases that follow already have their pIC50 on record.
CC(c1ccc2c3c(c(=O)[nH]c2c1)CCCN3)N(C)C (stereo not drawn) [Example 38, dihydrochloride]	> 6.00
O=c1[nH]c2ccc(OCCCN3CCCCC3)cc2c2c1CCCN2 [Example 21, dihydrochloride]	< 5.40

Consider now this further compound.
IN: Item CN(C)CCCc1ccc2[nH]c(=O)c3c(c2c1)NCCC3 [Example 33, dihydrochloride] with PARP-1 enzyme (Homo sapiens (Human), UniProt P09874) - pIC50?
OUT: > 6.00
